System: NCI-H226 lung
ASSAY_METHOD_TEXT: NCI tumour cell line growth inhibition, 48 h; in the data active = GI50 below about 0.43 µM; inactive = the rest
Thanks in advance; please answer with one of these: Y for active, N for inactive

MOL	DISCRETE_LABEL
O=[N+]([O-])c1ccc(N2CCN(Cc3ccccc3)CC2)c2c1no[n+]2[O-]	N
COc1cccc(-c2nn(-c3ccccc3)cc2-c2ccnc(NCCNS(=O)(=O)c3ccc(Cl)cc3)c2)c1	N
Nc1c(C(=O)Nc2ccccc2)sc2nc3c(cc12)CCCCCC3	N

Kindly consider the entry below.
What is the recorded call for this compound in the test? `CN(C)/[N+]([O-])=N/Oc1cc(Nc2cccc(C(=O)O)c2)c([N+](=O)[O-])cc1[N+](=O)[O-]`
N

====

System: MDA-MB-435
ASSAY_METHOD_TEXT: NCI tumour cell line growth inhibition, 48 h
Entries and their measured TGI follow.

Take a look at these entries with their results.
COMPOUND	TGI
COc1ccc(C(=O)Cn2c(C(=O)c3ccc(OC)cc3)nc3ccccc32)cc1	> 34.4 µM
NC(=O)NC(=O)c1cnccn1	> 100 µM
CCCC1NC(=O)C(CC(C)C)NC(=O)c2cccc(n2)C(=O)NC(CC(C)C)C(=O)NC(CCC)C(=O)NC(C(=O)OC)CCCCNC1=O (stereo unspecified)	> 100 µM

Please report the recorded TGI for `Cn1cc(C(=O)c2nccc3c2cnc2ccccc23)ccc1=O` .
> 100 µM

Also, `NCc1ccc(-c2ccc(-c3ccc(-c4ccc(CN)s4)s3)s2)s1` please.
> 100 µM

Also, `CCOc1c2ccsc2c(OCC)c2ccsc12` please.
3.15 µM

Also, `CN1CCN(Cc2ccc(-c3cc4ncnc(Nc5ccc(OCc6cccc(F)c6)c(Cl)c5)c4s3)o2)CC1` please.
10.4 µM

Also, `Cc1ccc2c(c1)SSSSS2` please.
38.8 µM

Also, `C[Si](C)(C)C#CCO[Si](C)(C)C` please.
> 100 µM

Also, `CC(C)(C)[OH+][O-].[O-]c1ccc(Cl)cc1C=Nc1ccc(Cl)cc1[O-].[O]=[V]` please.
> 100 µM

Also, O=c1c2ccccc2nc2n1NC(c1c(Cl)cccc1Cl)N2c1cccc(Cl)c1 (stereo unspecified) please.
> 100 µM

====

Entries and their measured log10(TGI) follow.
System: UO-31 renal
ASSAY_METHOD_TEXT: NCI tumour cell line growth inhibition, 48 h
A difference of one corresponds to tenfold TGI; all values are log10 with TGI in µM.

Take a look at these entries with their results.
MOLECULE	REPORTED_RESULT
CCNc1nnc(CSc2nc(-c3ccccc3)c(-c3ccccc3)[nH]2)s1	1.47
CCCCCC(CN1CCOCC1)C(=O)/C=C/c1ccccc1 (stereo not given)	1.30

Please report the recorded log10(TGI) for `CCOC(=O)c1c(C)n(Cc2ccccc2)c(=O)c2ccccc2c(=O)c2c(=O)ccc(=O)c1=2` .
1.54

Also, `O=[N+]([O-])c1cnc(Sc2ccncn2)c([N+](=O)[O-])c1` please.
0.47

Also, `O=[N+]([O-])c1ccc(N2CCN(Cc3ccccc3)CC2)c2c1no[n+]2[O-]` please.
0.41

Also, CCC1(C)C=Cc2c(cc(OC)c3c(=O)c4ccccc4n(C)c23)O1 (stereo not given) please.
0.38

Also, `CN1CCN(Cc2ccc(-c3cc4ncnc(Nc5ccc(OCc6cccc(F)c6)c(Cl)c5)c4s3)o2)CC1` please.
0.87

Also, `CCn1c(=O)c(-c2ccn[nH]2)cc2c(C)nc(N)nc21` please.
0.57

Also, O=C(CCN1CCN(c2cccc(Cl)c2)CC1)N1CCc2c([nH]c3ccccc23)C1c1cccnc1 (stereo not given) please.
1.21

Also, `O=C1C=CC(=O)c2c1ccc1c3ccccc3n(-c3ccccn3)c21` please.
1.55

====

Entries and their measured TGI follow.
Tested on: MCF7 breast
ASSAY_METHOD_TEXT: NCI tumour cell line growth inhibition, 48 h

Take a look at these entries with their results.
COMPOUND	MEASURED_ON	REPORTED_RESULT
C/C(=N/NC(=S)Nc1ccccc1Cl)c1ccccn1	MCF7 breast	0.27 µM
CN(C1=NCCO1)c1cccc2ccccc12	MCF7 breast	> 10 µM
COc1c2c(c(OC)c3c1c(=O)c1ccccc1n3C)OCO2	MCF7 breast	> 100 µM
CS(=O)(=O)c1ccc(Oc2cc(F)cc(C#N)c2)c2c1[C@H](O)[C@H](F)[C@@H]2F	MCF7 breast	> 100 µM

Please report the recorded TGI for `CNc1ncnc(Sc2nc(N)nc3nc[nH]c23)c1[N+](=O)[O-]` .
> 41.5 µM

Also, COc1ccc(-c2ccc(C3CC(c4ccc(O)cc4)=NN3)o2)c([N+](=O)[O-])c1 (stereo not given) please.
74.4 µM

Also, `Cc1ccc(-c2c(C#N)c(-c3ccc(Cl)cc3)c(C#N)c(=O)n2NS(=O)(=O)c2ccccc2)cc1` please.
> 100 µM

====

System: SK-MEL-2 melanoma
ASSAY_METHOD_TEXT: NCI tumour cell line growth inhibition, 48 h
PARAMETER_MEASURED: TGI

Take a look at these entries with their results.
COMPOUND	MEASURED_ON	TGI
N#CC1=C(N)Oc2cc3c(cc2C1c1cccs1)OCO3 (configuration not stated)	SK-MEL-2 melanoma	0.783 µM
C=C[C@@H]1OC(=O)O[C@H]1CO	SK-MEL-2 melanoma	> 100 µM
COc1ccc2[nH]c(CCNC(=O)c3cc([N+](=O)[O-])cc([N+](=O)[O-])c3)cc2c1	SK-MEL-2 melanoma	> 100 µM
OC1(c2ccccc2)CC2CCC(C1)N2CCc1ccccc1 (configuration not stated)	SK-MEL-2 melanoma	> 100 µM
CCCCCCCCCOC(=O)c1cnc(Cl)cn1	SK-MEL-2 melanoma	40.2 µM

Please report the recorded TGI for COc1ccc2c(c1)C(N)CC2=O (configuration not stated) .
74.1 µM

Also, `Cn1c(=O)oc2cc(C(=O)CSC(=S)N3CCCCCC3)ccc21` please.
> 100 µM

Also, `S=CN1CCCCC1` please.
> 100 µM

Also, `C/C(=N/NC(=S)Nc1ccccc1Cl)c1ccccn1` please.
9.47 µM

Also, `O=S(=O)([O-])[O-].[OH3+].[OH3+].[OH3+].[Ru+2].c1ccccc1` please.
> 100 µM

Also, `CN(C)c1nc(N(C)C)nc(N(C)C)n1` please.
> 150 µM

Also, O=C(CCN1CCN(c2cccc(Cl)c2)CC1)N1CCc2c([nH]c3ccccc23)C1c1cccnc1 (configuration not stated) please.
18.2 µM

Also, `NCc1ccc(-c2ccc(-c3ccc(-c4ccc(CN)s4)s3)s2)s1` please.
> 100 µM

Also, `COc1nc2c(OC)cccc2c(OC)c1C=O` please.
> 100 µM

Also, `CC(=O)ON(OC(C)=O)c1ccc(C)cc1` please.
> 100 µM

Also, Cc1ccc(C)c(NC(=O)C(=O)C(c2cnc3ccc([N+](=O)[O-])cc3n2)[N+](=O)[O-])c1 (configuration not stated) please.
> 100 µM

Also, CC(=O)OCC1OC(On2ccccc2=S)C(OC(C)=O)C(OC(C)=O)C1OC(C)=O (configuration not stated) please.
> 100 µM

Also, `Cc1ccc(Nc2nc(=S)[nH]c3[nH]ncc23)cc1` please.
> 100 µM

Also, `Clc1ccc(N=C/C=C/Nc2ccc(Cl)cn2)nc1` please.
29.2 µM

Also, `O=c1c(O)c(-c2ccc(O)cc2O)oc2cc(O)cc(O)c12` please.
> 100 µM

Also, CC(C)C(C(=O)O)N(CC1(O)OCC(O)C(O)C1O)N=O (configuration not stated) please.
> 100 µM

Also, `O=C1/C(=C/c2cccc([N+](=O)[O-])c2)COc2ccc(O)c(O)c21` please.
4.35 µM

Also, `C[C@]12CC[C@@H]3c4ccc(O)cc4CC[C@H]3[C@@H]1C/C(=C\c1ccc([N+](=O)[O-])cc1)C2=O` please.
> 100 µM

Also, `C=C1C(=O)O[C@@H]2C[C@@H]1CC[C@]1(C)O[C@H]1CC[C@@]1(C)O[C@@H]1CC[C@@]2(C)O` please.
> 100 µM

Also, `Cc1c(N2C(=O)/C(=C/C=C/c3ccccc3)N=C2c2ccccc2)c(=O)n(-c2ccccc2)n1C` please.
44.5 µM

Also, `Cn1ccnc1C(=O)/C=C/c1ccc(CC(=O)Nc2ccc(Cl)cc2)cc1` please.
> 25 µM

Also, `Oc1c(CN2CCC(N3CCOCC3)CC2)cc(Cc2cc(CN3CCC(N4CCOCC4)CC3)c(O)c3ncccc23)c2cccnc12` please.
30.3 µM

====

Entries and their measured TGI follow.
Test system: NCI-H460 lung
ASSAY_METHOD_TEXT: NCI tumour cell line growth inhibition, 48 h

Take a look at these entries with their results.
COMPOUND	REPORTED_RESULT
O=[N+]([O-])c1ccc(N2CCN(Cc3ccccc3)CC2)c2c1no[n+]2[O-]	3.52 µM
CCN(CC)CCn1c(C(C)(C)C)nc2ccccc21	> 100 µM
OCCN(CCO)N=Nc1ccc(-c2nc3ccccc3[nH]2)cc1	29.5 µM
COc1ccc(OC)c(C2CCc3nc4nc(N)nc(N)c4cc3C2)c1 (stereo unspecified)	19.2 µM
Cc1ccc(/C=C2\CN(C)CC3=C2OC(N)=C(C#N)C3c2ccc(C)cc2)cc1 (stereo unspecified)	34.3 µM

Give TGI (NCI-H460 lung) of the following compound: CCN1CC2=C(N=c3s/c(=C\c4ccc(Cl)cc4)c(=O)n3C2c2ccc(Cl)cc2)/C(=C/c2ccc(Cl)cc2)C1 (stereo unspecified)
> 100 µM
